For each of the compounds below, state its melting point.

Given the compound `O=C(O)c1ccc(Cl)cc1Sc1ccc(F)cc1` , what is its reported melting point?
204 to 213 °C

Given the compound `O=C(Cc1cnoc1-c1ccccc1)Nc1nc(-c2ccc(Cl)cc2)cs1` , what is its reported melting point?
210 to 211 °C

Given the compound `CSc1cc(N)nc(C(N)=O)c1` , what is its reported melting point?
158 to 159 °C

Given the compound `O=C(Nc1cc(F)cc(F)c1)Oc1ccccc1` , what is its reported melting point?
123 to 125 °C

Given the compound Cc1cc(C)c(S(=O)(=O)NC(CSc2ccccc2)C(F)(F)F)c(C)c1 (configuration not stated) , what is its reported melting point?
76 to 78 °C

Given the compound O=C1c2ccccc2C(=O)N1N1C2CCCCC21 (configuration not stated) , what is its reported melting point?
75 to 77 °C

Given the compound `CCc1nc(-c2ccc(OCCCn3cnc4ccccc43)cc2)no1` , what is its reported melting point?
100 to 101 °C

Given the compound `CC(=O)Oc1ccccc1C(=O)NC1CCN(CCCOc2ccccc2C#N)CC1` , what is its reported melting point?
80 to 82 °C

Given the compound O=C1CSC(c2cccnc2)N1 (configuration not stated) , what is its reported melting point?
135 to 137 °C

Given the compound `OCc1ccc(-c2ccccc2)cn1` , what is its reported melting point?
86 to 87 °C

Given the compound `C#CCOCc1cc(-c2ccc(C(F)(F)F)n(C)c2=O)c(F)cc1Cl` , what is its reported melting point?
99 to 101 °C

Given the compound `Cc1oc(-c2ccc(Cl)cc2)cc1C(=O)NCc1ccc2cc(OCC(=O)O)ccc2c1` , what is its reported melting point?
177 to 181 °C

Given the compound `CCOC(=O)Cn1c2c([nH]c(=O)c1=O)CCC1=C2C=C(n2ccc(C(=O)O)c2)CC1` , what is its reported melting point?
282 °C

Given the compound CC1(C)CCC(C)(C)c2cc(-c3cc(-c4ccc(C(=O)O)cc4)ccc3OCC(O)CO)ccc21 (configuration not stated) , what is its reported melting point?
258 °C

Given the compound `O=C(Nc1cccc(O)c1)C(=O)N1CCC(Cc2ccccc2)CC1` , what is its reported melting point?
158 to 160 °C

Given the compound O=C(N[C@H](Cc1cccc(OCC(F)(F)C(F)F)c1)[C@@H](O)c1ccc(F)cc1)c1ccc(F)c2ccccc12 (racemic) , what is its reported melting point?
160 to 161 °C

Given the compound `CN(c1cc2ccccc2s1)c1nc(=O)c2cccnc2s1` , what is its reported melting point?
220 to 221 °C

Given the compound `CC(=O)OCCn1cncc1[N+](=O)[O-]` , what is its reported melting point?
61 to 62 °C

Given the compound `CSc1ccc(-n2c(-c3ccncc3)nc(SC)c(C#N)c2=O)cc1` , what is its reported melting point?
227 to 229 °C

Given the compound `S=C=NCc1cc(-c2ccc(Cl)cc2)no1` , what is its reported melting point?
74 to 76 °C

Given the compound COc1cc2c(cc1OC)-c1cc(OC)c(OC)c3c1C(C2)CN(C)C3 (configuration not stated) , what is its reported melting point?
170 to 177 °C

Given the compound CCCCCC1CCc2c(c(F)c(F)c3oc(C)cc23)O1 (configuration not stated) , what is its reported melting point?
61 °C

====

For each of the compounds below, state its melting point.

Given the compound `Cc1nn(C)c(C(=O)O)c1-c1ccc(Cl)c(C(=O)NCC23CC4CC(CC(C4)C2)C3)c1` , what is its reported melting point?
207 °C

Given the compound `COC(=O)C(O)(c1ccc(C(F)(F)F)cc1)c1ccc(C(F)(F)F)cc1` , what is its reported melting point?
68 °C

Given the compound `CCCc1ccc2ncc(C(=O)NCc3ccc(Cl)cc3)c(O)c2c1` , what is its reported melting point?
225 to 227 °C

Given the compound O=S(=O)(CC(O)(CBr)c1cccc(Br)c1)c1ccccc1 (stereo unspecified) , what is its reported melting point?
132 °C

Given the compound `Nc1cc(Cl)c(F)cc1-c1cccc(Cl)c1` , what is its reported melting point?
58 °C

Given the compound `COc1ccc(-c2cnoc2-c2ccc(OC(C)C)cc2O)cc1` , what is its reported melting point?
148 to 149 °C

Given the compound `CC(C)n1nc(-c2sc(NCc3ccco3)nc2-c2ccccc2)ccc1=O` , what is its reported melting point?
115 to 116 °C

Given the compound Cc1ccc2c(c1)c(=O)c(S(C)=O)cn2C (stereo unspecified) , what is its reported melting point?
202 to 205 °C

Given the compound `CCOC(=O)CC[C@H](NC(=O)c1ccc(N)cc1F)C(=O)OCC` , what is its reported melting point?
130 to 132 °C

Given the compound `N#Cc1nc(Cl)c(-c2c(F)cc(F)cc2F)c(N2CCCO2)n1` , what is its reported melting point?
107 to 113 °C

Given the compound CCCCc1c2c(nc3cc(F)cc(F)c13)-c1cc3c(c(=O)n1C2)COC(=O)CC3(O)CC (stereo unspecified) , what is its reported melting point?
190 °C

Given the compound `NC[C@@H]1CNc2cccc(-c3cc(Cl)ccc3Cl)c2O1` , what is its reported melting point?
130 °C

Given the compound `Cn1nc(-c2ncc(Cl)cc2F)cc1OCC(F)(F)F` , what is its reported melting point?
72 to 73 °C

Given the compound Cc1ccc(C2=NC[C@@H](O)[C@H](c3ccccc3)O2)cc1 (racemic) , what is its reported melting point?
168 °C

Given the compound C=CCN1C2CCC3C1CCC2N3C(c1ccc(C(=O)N(CC)CC)cc1)c1cccc(O)c1 (stereo unspecified) , what is its reported melting point?
147 to 150 °C

Given the compound `C=CCOc1ccc2sc(=O)oc2c1` , what is its reported melting point?
78 to 80 °C

Given the compound `CC(C)c1nc(-c2ccccc2)c(F)c(-c2ccc(F)cc2)c1CO` , what is its reported melting point?
164 to 165 °C

Given the compound CCOC(=O)c1ccc(CCCC2NC(=O)CS2)c(Cl)c1 (stereo unspecified) , what is its reported melting point?
81.5 to 82.5 °C

Given the compound `CC(C)c1cccc2[nH]c(C(=O)O)cc(=O)c12` , what is its reported melting point?
> 250 °C

Given the compound CCOC(=O)C(C)(C)Oc1cccc2c1C[C@@H](OC)[C@H](O)C2 (relative stereo) , what is its reported melting point?
153 to 155 °C

Given the compound O=C1NC(=O)C(Cc2ccc3c(c2)CCCN3Cc2ccccc2)S1 (stereo unspecified) , what is its reported melting point?
155 to 158 °C

====

For each of the compounds below, state its melting point.

Given the compound `N#Cc1cccc(S)c1` , what is its reported melting point?
91 to 95 °C

Given the compound `CNS(=O)(=O)c1ccc(-c2ccc3oc(C4CCN(C(=O)OC(C)C)CC4)nc3c2)cc1` , what is its reported melting point?
179 to 181 °C

Given the compound `Cc1ccc([N+](=O)[O-])cc1Nc1cc(-c2cccnc2)ccn1` , what is its reported melting point?
170 to 173 °C

Given the compound O=C(O)c1cn2c3c(cccc3c1=O)C1CCCCC12 (stereo not given) , what is its reported melting point?
238 to 241 °C

Given the compound `COc1cc(CN[C@@H](C(=O)N[C@H](C(=O)NCc2ccc(OC)cc2O)C(C)C)[C@H](O)[C@H](Cc2ccccc2)NC(=O)OC(C)(C)C)cc(OC)c1` , what is its reported melting point?
138 °C

Given the compound `O=C(O)/C=C/C=C/C=C/C1=Cc2cc(C(F)(F)F)ccc2OC1` , what is its reported melting point?
208 to 210 °C

Given the compound `Cc1nc2ccc(F)cc2[nH]1` , what is its reported melting point?
177 to 178 °C

Given the compound `c1ccc(C(CCOc2ccc(Cc3nnn[nH]3)cc2)(c2ccccc2)c2ccccc2)cc1` , what is its reported melting point?
187 to 189 °C

Given the compound `Cc1cn(CCCCc2ccccc2)c2ccc(C(=O)Nc3cccc4c(=O)cc(-c5nnn[nH]5)oc34)cc12` , what is its reported melting point?
186 to 187 °C

Given the compound `O=C(c1ccc(F)cc1F)N1Cc2cccnc2Nc2ccccc21` , what is its reported melting point?
161 to 163 °C

====

For each of the compounds below, state its melting point.

Given the compound O=C1C(CCO)Oc2ccc(-c3ccccc3)cc2N1Cc1cccc(Cl)c1 (centres undefined) , what is its reported melting point?
119 to 121 °C

Given the compound `O=C1NCCc2c1c1cccc3c1n2CCO3` , what is its reported melting point?
298 to 300 °C

Given the compound O=C(O)C(Oc1ccc(F)cc1)c1ccc(Oc2ccc(Cl)cc2)cc1 (centres undefined) , what is its reported melting point?
106 to 111 °C

Given the compound `Cn1c(=O)c2c(Cl)cc(Cl)cc2n(Cc2ccccc2)c1=O` , what is its reported melting point?
166 to 169 °C

Given the compound `CC(C)(C)OC(=O)CCc1cc(S(C)(=O)=O)cc(-c2nc(=O)c3ccc(F)cc3s2)n1` , what is its reported melting point?
178 °C

Given the compound `CC(C)C[C@@H](C(=O)NCCCC(c1ccc(F)cc1)c1ccc(F)cc1)N1CCCCC1` , what is its reported melting point?
52 to 70 °C

Given the compound `CN1CCN(C(=O)c2nc(-c3ccccc3)nc3c2c2ccc(Cl)cc2n3C)CC1` , what is its reported melting point?
236 to 238 °C

Given the compound `COc1ccc(CCOc2ccnc(-c3cccc(C(=O)O)c3)c2)cc1OC` , what is its reported melting point?
194 to 195 °C

Given the compound `CNS(=O)(=O)c1cc(C(=O)NNC(=O)c2occ(-c3ccccc3)c2-c2ccccc2)ccc1O` , what is its reported melting point?
119 to 120 °C
